Hello, the source for this data is patent US20100092974A1, in case you need it.

Target: T1, mouse CMKLR1 (chemokine-like receptor 1), untagged (mouse, UniProt P97468 1-371)
T1 construct: whole, on cells; also called mCMKLR1; mCMKLR1/L1.2
T1 sequence (looked up): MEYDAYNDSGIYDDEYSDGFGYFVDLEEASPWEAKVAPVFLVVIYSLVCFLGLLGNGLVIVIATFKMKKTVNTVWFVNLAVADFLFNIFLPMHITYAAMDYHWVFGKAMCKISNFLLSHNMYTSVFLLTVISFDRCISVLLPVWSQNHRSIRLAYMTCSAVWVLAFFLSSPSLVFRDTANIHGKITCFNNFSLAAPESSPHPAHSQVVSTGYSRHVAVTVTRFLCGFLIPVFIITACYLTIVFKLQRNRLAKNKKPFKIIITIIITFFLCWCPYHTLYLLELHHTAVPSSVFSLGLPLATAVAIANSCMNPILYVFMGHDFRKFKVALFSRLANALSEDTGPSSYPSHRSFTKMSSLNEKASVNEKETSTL
Test: radioligand competition on L1.2 transfectants; displaces 125I-chemerin 21-148; 9-mer peptide … on CMKLR1
reported.endpoint: EC50 (nM)
One number for each entry, in nM.

Using the record for YFPGQFAFS (Synthetic peptide; also called bioactive chemerin peptide) [bioactive 9-mer carboxyl-terminal chemerin peptide (residues 149-157)] , report its EC50.
26.2
